# literature pull: Somatostatin receptor type 3 (Homo sapiens, UniProt P32745) Ki
# Sequence (P32745 whole entry): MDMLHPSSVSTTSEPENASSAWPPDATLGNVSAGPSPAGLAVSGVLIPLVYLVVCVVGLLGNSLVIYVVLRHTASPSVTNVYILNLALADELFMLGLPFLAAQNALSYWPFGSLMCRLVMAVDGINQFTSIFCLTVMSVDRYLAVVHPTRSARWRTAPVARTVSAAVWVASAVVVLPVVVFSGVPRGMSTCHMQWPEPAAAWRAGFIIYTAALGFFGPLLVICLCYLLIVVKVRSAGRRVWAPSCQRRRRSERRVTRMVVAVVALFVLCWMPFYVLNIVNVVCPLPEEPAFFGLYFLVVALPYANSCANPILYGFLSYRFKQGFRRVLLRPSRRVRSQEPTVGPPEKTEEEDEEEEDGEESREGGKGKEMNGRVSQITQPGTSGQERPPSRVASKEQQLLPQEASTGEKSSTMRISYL
Provide only the numeric value, understood in nM.

Give Ki for C[C@@H](O)[C@H](NC(=O)[C@@H]1CSSC[C@H](NC(=O)[C@H](N)Cc2ccc3ccccc3c2)C(=O)N[C@@H](Cc2ccc(O)cc2)C(=O)N[C@H](Cc2c[nH]c3ccccc23)C(=O)N[C@@H](CCCCN)C(=O)N[C@@H]([C@@H](C)O)C(=O)N1)C(N)=O tested on Somatostatin receptor type 3 (Homo sapiens, UniProt P32745).
11.5

Report measured Ki on Somatostatin receptor type 3 (Homo sapiens, UniProt P32745); entry: CC(c1c[nH]c2ccccc12)C(NC(=O)N1CCC(n2c(=O)[nH]c3ccccc32)CC1)C(=O)NCC1CCCC(CN)C1 (stereo not drawn)
729

Send back Somatostatin receptor type 3 (Homo sapiens, UniProt P32745) Ki of CSCC[C@H](NC(=O)[C@H](CCCN=C(N)N)NC(=O)[C@@H](N)CC(=O)O)C(=O)N1CCC[C@H]1C(=O)N[C@H]1CSSC[C@@H](C(=O)N[C@@H](CCCCN)C(=O)O)NC(=O)[C@H](CO)NC(=O)[C@H](CO)NC(=O)[C@H](Cc2ccccc2)NC(=O)[C@H]([C@@H](C)O)NC(=O)[C@H](CCCCN)NC(=O)[C@H](Cc2c[nH]c3ccccc23)NC(=O)[C@H](Cc2ccccc2)NC(=O)[C@H](Cc2ccccc2)NC(=O)[C@H](CC(N)=O)NC(=O)[C@H](CCCN=C(N)N)NC1=O only.
0.6

Report Ki from Somatostatin receptor type 3 (Homo sapiens, UniProt P32745) testing of CC(C)[C@@H]1NC(=O)[C@H](CCCCN)NC(=O)[C@@H](Cc2c[nH]c3ccccc23)NC(=O)[C@H](Cc2ccc(O)cc2)NC(=O)[C@H](C)N(C)C(=O)[C@H](Cc2ccccc2)NC1=O
230

For Somatostatin receptor type 3 (Homo sapiens, UniProt P32745), give the measured Ki of the entry CC[C@@H]1NC(=O)[C@H](CCCCN)NC(=O)[C@@H](Cc2c[nH]c3ccccc23)NC(=O)[C@H](Cc2ccc(O)cc2)NC(=O)[C@@H](NC(=O)[C@H](N)Cc2ccccc2)CSSC[C@@H](C(=O)N[C@H](C(N)=O)[C@@H](C)O)NC1=O
8.2

# lookup: Somatostatin receptor type 3 (Homo sapiens, UniProt P32745) Ki, key = C[C@H](N)COC(=O)[C@H](CCCCN)NC(=O)Cc1c(-c2ccc3ccccc3c2)[nH]c2c1ccc1ccccc12
64

Please report the measured Ki for CC(O)[C@H]1NC(=O)[C@@H](Cc2ccccc2)NC(=O)[C@H]2CCCN2C(=O)[C@H](Cc2ccc(O)cc2)NC(=O)[C@@H](Cc2c[nH]c3ccccc23)NC(=O)[C@@H](CCCCN)NC1=O (stereo partly drawn) tested on Somatostatin receptor type 3 (Homo sapiens, UniProt P32745).
3070

State Ki on Somatostatin receptor type 3 (Homo sapiens, UniProt P32745). Entry: C[C@@H](c1c[nH]c2ccccc12)[C@@H](NC(=O)N1CCC(n2c(=O)[nH]c3ccccc32)CC1)C(=O)NC(CCCCN)C(=O)OC(C)(C)C (stereo partly drawn)
31
